# target.under.test: T1, monovalent hVISTA-ECD (human VISTA extracellular domain with His tail) (human, UniProt Q9H7M9 33-193)
# T1 construct: analyte flowed over captured antibody; also called huVISTA-His
# protocol: SPR, pH 7.4
Entries and their kon values follow.
A number alone suffices; assume M⁻¹ s⁻¹.

As a guide, the following entries are already answered.
So, P1-064500 (41F11_Vk_Q90DA64G) (antibody, V domains shown, also called P1-064500-1) VH: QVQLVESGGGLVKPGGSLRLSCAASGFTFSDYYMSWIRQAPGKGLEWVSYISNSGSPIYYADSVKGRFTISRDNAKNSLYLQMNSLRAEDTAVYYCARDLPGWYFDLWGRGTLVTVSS VL: EIVLTQSPATLSLSPGERATLSCRASQSVSSYLAWYQQKPGQAPRLLIYDASNRATGIPARFSGSGSGTDFTLTISSLEPEDFAVYYCQDRNNWPRTFGQGTKVEIK ? Its kon was 325000

So, P1-064528 (41F11_VH_D31E/Y50W/S55E/L96E/Y100E) (antibody, V domains shown, Kabat positions; also called P1-064528-1) VH: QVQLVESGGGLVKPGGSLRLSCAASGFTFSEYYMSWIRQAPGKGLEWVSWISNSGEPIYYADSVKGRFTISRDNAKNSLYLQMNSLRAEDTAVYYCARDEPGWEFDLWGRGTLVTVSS VL: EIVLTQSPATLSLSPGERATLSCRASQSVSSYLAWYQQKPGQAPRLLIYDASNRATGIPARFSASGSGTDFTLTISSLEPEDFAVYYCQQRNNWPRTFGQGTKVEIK ? Its kon was 296000

So, P1-064478 (41F11_VH_Y50E) (antibody, V domains shown, Kabat positions; also called P1-064478-1) VH: QVQLVESGGGLVKPGGSLRLSCAASGFTFSDYYMSWIRQAPGKGLEWVSEISNSGSPIYYADSVKGRFTISRDNAKNSLYLQMNSLRAEDTAVYYCARDLPGWYFDLWGRGTLVTVSS VL: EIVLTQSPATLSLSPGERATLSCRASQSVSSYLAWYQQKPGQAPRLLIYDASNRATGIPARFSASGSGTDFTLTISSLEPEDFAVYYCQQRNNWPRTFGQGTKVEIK ? Its kon was 55400

Next binder, please.
So, P1-061528 (41F11 NGS mut VK_A64G/R91A) (antibody, V domains shown, also called P1-061528-2) VH: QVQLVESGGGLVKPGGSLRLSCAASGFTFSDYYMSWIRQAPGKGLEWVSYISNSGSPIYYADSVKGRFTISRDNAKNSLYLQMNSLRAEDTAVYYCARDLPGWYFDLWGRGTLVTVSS VL: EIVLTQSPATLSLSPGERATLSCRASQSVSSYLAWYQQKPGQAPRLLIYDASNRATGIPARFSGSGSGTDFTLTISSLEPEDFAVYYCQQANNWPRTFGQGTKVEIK ? Its kon was 6260
